test.summary: Tmax in arrhythmia patient (7 patients) at 400 mg, iv after 4 days 400 mg, po dose administered followed continuous oral therapy with 200 mg, tid by HPLC analysis
experimental.conditions: human, in vivo
readout.label: Tmax at 96 h (h)
Give the value in h but do not write h after it.

What value of Tmax at 96 h has been reported for the following molecule? "CCCCc1oc2ccccc2c1C(=O)c1cc(I)c(OCCN(CC)CC)c(I)c1"
7.3

====

test.summary: Drug concentration in arrhythmia patient (7 patients) serum at 400 mg, iv after 4 days 400 mg, po dose administered followed continuous oral therapy with 200 mg, tid measured after 1 month by HPLC analysis
experimental.conditions: human
readout.label: concentration at 96 h (ng/mL)
Give the value in ng/mL but do not write ng/mL after it.

What value of concentration at 96 h has been reported for the following molecule? "CCCCc1oc2ccccc2c1C(=O)c1cc(I)c(OCCN(CC)CC)c(I)c1"
1560

====

test.summary: Drug uptake in arrhythmia patient (7 patients) serum at 400 mg, iv after 4 days 400 mg, po dose administered followed continuous oral therapy with 200 mg, tid measured 2 hrs after iv drug challenge by HPLC analysis
experimental.conditions: human
readout.label: concentration at 2 h (ng/mL)
Give the value in ng/mL but do not write ng/mL after it.

What value of concentration at 2 h has been reported for the following compound? CCCCc1oc2ccccc2c1C(=O)c1cc(I)c(OCCN(CC)CC)c(I)c1 [AMIODARONE]
2000

====

test.summary: Drug concentration in arrhythmia patient (7 patients) serum at 400 mg, iv after 4 days 400 mg, po dose administered followed continuous oral therapy with 200 mg, tid measured after 48 hrs by HPLC analysis
experimental.conditions: human
readout.label: concentration at 48 h (ng/mL)
Give the value in ng/mL but do not write ng/mL after it.

What value of concentration at 48 h has been reported for the following molecule? CCCCc1oc2ccccc2c1C(=O)c1cc(I)c(OCCN(CC)CC)c(I)c1 [AMIODARONE]
760
